Target: UniProt P30542
Sequence (P30542 whole entry): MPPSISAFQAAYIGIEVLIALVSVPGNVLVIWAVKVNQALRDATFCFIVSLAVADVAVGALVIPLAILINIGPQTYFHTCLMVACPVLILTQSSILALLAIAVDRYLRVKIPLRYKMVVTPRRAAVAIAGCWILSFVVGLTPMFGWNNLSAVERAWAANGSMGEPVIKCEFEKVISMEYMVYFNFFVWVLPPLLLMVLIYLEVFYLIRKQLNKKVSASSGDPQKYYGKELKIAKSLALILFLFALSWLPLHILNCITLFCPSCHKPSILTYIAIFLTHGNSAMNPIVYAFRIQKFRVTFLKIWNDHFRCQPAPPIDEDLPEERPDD
Measure Name: pKi
# pKi = -log10(concentration in molar units)

INSERT INTO assay_data (compound, system_tested, observed_result) VALUES
  ('Nc1ncn([C@@H]2O[C@H](CO)[C@@H](O)[C@H]2O)c(=O)c1Cl [Adenosine receptor agonist, 14]', 'UniProt P30542', 6.44),
  ('Nc1nccc2c1ncn2[C@@H]1O[C@H](CO)[C@@H](O)[C@H]1O [CAS_6736-58-9]', 'UniProt P30542', 6.34),
  ('Nc1ccnc2c1ncn2[C@@H]1O[C@H](CO)[C@@H](O)[C@H]1O [1-DEAZA-ADENOSINE]', 'UniProt P30542', 7.08);

# context switch: different compound, same pKi
Lab entry: UniProt P30542 assay, compound Nc1nc(=O)[nH]c2c1ncn2[C@@H]1O[C@H](CO)[C@@H](O)[C@H]1O [Adenosine receptor agonist, 9] , pKi = 6.33

###

target: UniProt:P29274
Sequence (P29274 whole entry): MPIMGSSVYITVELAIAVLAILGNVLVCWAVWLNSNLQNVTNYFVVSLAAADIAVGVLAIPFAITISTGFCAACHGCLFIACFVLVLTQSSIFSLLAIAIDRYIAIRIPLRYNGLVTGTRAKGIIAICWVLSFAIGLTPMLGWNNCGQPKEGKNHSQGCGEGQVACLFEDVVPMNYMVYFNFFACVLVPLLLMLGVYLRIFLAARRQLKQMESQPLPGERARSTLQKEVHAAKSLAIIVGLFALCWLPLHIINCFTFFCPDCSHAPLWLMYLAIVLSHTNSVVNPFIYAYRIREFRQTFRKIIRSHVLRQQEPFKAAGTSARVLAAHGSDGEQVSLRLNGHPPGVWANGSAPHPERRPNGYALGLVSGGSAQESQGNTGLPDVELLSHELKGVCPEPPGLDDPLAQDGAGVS
Measure Name: Ki (nM)
Express your answer in nM, writing the number without its unit.

Entry under test: Nc1nc(=O)[nH]c2c1ncn2[C@@H]1O[C@H](CO)[C@@H](O)[C@H]1O . Its Ki was 495
